Cited source for all entries: paper PMC12136788

- study_system: MSI1 full-length (mouse, UniProt Q61474 1-362)
- Sequence (Q61474 whole entry): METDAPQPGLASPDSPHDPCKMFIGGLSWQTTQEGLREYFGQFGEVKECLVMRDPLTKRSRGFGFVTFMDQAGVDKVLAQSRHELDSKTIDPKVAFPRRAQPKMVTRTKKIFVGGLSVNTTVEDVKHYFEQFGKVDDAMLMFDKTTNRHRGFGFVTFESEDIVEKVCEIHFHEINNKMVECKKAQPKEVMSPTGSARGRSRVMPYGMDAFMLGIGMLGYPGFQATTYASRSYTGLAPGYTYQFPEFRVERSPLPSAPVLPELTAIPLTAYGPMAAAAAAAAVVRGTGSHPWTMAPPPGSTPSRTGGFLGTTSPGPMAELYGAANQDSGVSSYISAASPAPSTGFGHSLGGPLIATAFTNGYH
- measurement_description: nsRBNS (natural sequence RNA bind-n-seq); RBNS binding buffer (assumed for nsRBNS): 25 mM Tris pH 7.5, 150 mM KCl, 3 mM MgCl2, 0.01% Triton X-100, 500 ug/ml BSA, 20 U/ml SUPERase-In, 4 C; UNK is unkempt and MSI1 is Musashi-1; names of the RNAs are library labels; protein concentration not given here; high values mean tight binding
The full ranking holds about 5,800 sequences; the median of “enrichment r” is about 0.54, and the highest 2% start at about 16. The full list was thinned out, with the highest values kept by preference.
measure_name: binding signal (enrichment R)
Reply with just the number (in enrichment R).

Prompt: I have this binder here, chr7:20410151:20410448:+|3pUTR|ENSG00000105855|msi1|FALSE|unique (ssRNA) RNA: GGGAGUUCUACAGUCCGACGAUCACUAGUGUCGUUGUAGCACUUUACUGUAAUAUAUAACUUAUUUAGAUCAGCAUAGAAUGUAGAUCCUCUGAAGAGCACUGAUUACACUUUACAGGUACCUGUUAUCCCUACGCUUCCCAGCAACAGAGGAUUGAGCAUCA , and I need its recorded binding signal.
Response: 16.1

Prompt: Looking for the measured binding signal of chr16:66721972:66722075:-|3pUTR|ENSG00000135720|unk|FALSE|unique (ssRNA) RNA: GGGAGUUCUACAGUCCGACGAUCUUUUUAAUUCAGUUUUUUAAAAAAACAAAUGUAUUGUGGCUUCCAGUUACCAGGUUGUCUAGGUAAUGACAGUAAACUGACUGUAGAAUGAUAAUUGUGGUAUAGUGACCAAUAGAUGCCCAACAGAGGAUUGAGCAUCA , can you help?
Response: 9.43

Prompt: I am curious: what binding signal value has been reported for chr12:66123492:66123593:-|3pUTR|ENSG00000139233|msi1|FALSE|unique (ssRNA) RNA: GGGAGUUCUACAGUCCGACGAUCAUGCUACCCAAUAUCCAGUUAUAAUCAGGCCUCAACGUUCUGUCAGGUAUUAAUAUGGUUAGAAUUGUUCUUACAACUGGUAAUUAUAGUCAAUAGAGAUAAAACAGAUGAUGUACUGACCAACAGAGGAUUGAGCAUCA ?
Response: 17.7
